TGI reference
# Tested on: UO-31 renal
# method: NCI tumour cell line growth inhibition, 48 h

Below: 5 compounds and their reported TGI.
compound: COc1cc(C(=O)/C=C/c2sc(Cl)nc2Cl)cc(OC)c1OC
systemTested: UO-31 renal
TGI: 2.75 µM
--
compound: Cc1sc(Nc2ccc(Nc3nc(-c4ccccc4)c(C)s3)cc2)nc1-c1ccccc1
systemTested: UO-31 renal
TGI: > 100 µM
--
compound: Cc1ccc(Cc2n[nH]c(=O)[nH]2)cc1
systemTested: UO-31 renal
TGI: > 100 µM
--
compound: CCOC(=O)COc1cccc2c1C(=O)CCO2
systemTested: UO-31 renal
TGI: > 100 µM
--
compound: COc1cc2c(c(OC)c1O)-c1ccc(SC)c(=O)cc1C(NC(C)=O)CC2 (stereo unspecified)
systemTested: UO-31 renal
TGI: > 100 µM

In: What TGI value was documented for this compound, NC1c2c(Br)sc(N3CCCC3)c2C(=O)C1O (stereo unspecified) ?
Out: > 50 µM
